// provenance: ChEMBL document CHEMBL1129238

- Organism: Homo sapiens
- PROCEDURE DETAILS: Anti hepatitis-B virus activity was evaluated in 2.2.15 cells.
- Type: functional, cell-based
- MEASUREMENT CONTEXT: HepG2 2.2.15
pEC50: recorded values
pEC50 here: minus log base 10 of the concentration, concentration in moles per litre.

> print(dat)
                                   compound  number
1  Nc1nc(=O)n([C@@H]2O[C@H](CO)[C@@H](O)[C@@H]2F)cc1I [FIACITABINE]    5.30

Now for another entry.
# input Report pEC50 for Cc1cn([C@@H]2O[C@H](CO)[C@@H](O)[C@@H]2F)c(=O)[nH]c1=O [5-METHYL-2'-FLUOROARAURACIL] please.
# output 7.00
